Every entry's value here was drawn from the supplement of paper PMC13380429.

System: HepG2
Assay: cell viability relative to DMSO; higher = less toxic
Details: 72 h; 10 nM
Recorded endpoint: cell viability
Reply with the number, then its unit.

// solved cases for cell viability follow
# Compound, Recorded endpoint, Readout value
data = [
    ("CC(C(=O)O)c1ccc2c(c1)Cc1cccnc1O2 (stereo not given)", "cell viability", "103%"),
    ("Cc1ccc2c(=O)c3ccccc3n(CCCN)c2c1C", "cell viability", "94.2%"),
    ("CCN(CC)CCOC(=O)c1cc(Cl)c(N)cc1OC", "cell viability", "97.1%"),
    ("CCc1cc2c(c(CC)n1)CCC(=O)N2Cc1ccc(-c2ccccc2-c2nnn[nH]2)cc1", "cell viability", "97.8%"),
    ("CN(C)[C@@H](CCOc1cccc2ccccc12)c1ccccc1", "cell viability", "104%"),
]

Entry COc1ccccc1OCC(O)CN1CCN(CC(=O)Nc2c(C)cccc2C)CC1 (stereo not given) , cell viability reported as 97.9%

Entry CC1Oc2cc(cnc2N)-c2c(nn(C)c2C#N)CN(C)C(=O)c2ccc(F)cc21 (stereo not given) , cell viability reported as 101%

Entry COc1cc([C@@H]2c3cc4c(cc3[C@@H](O[C@@H]3O[C@@H]5CO[C@@H](C)O[C@H]5[C@H](O)[C@H]3O)[C@H]3COC(=O)[C@H]23)OCO4)cc(OC)c1OP(=O)(O)O [etoposide-phosphate] , cell viability reported as 86.8%

Entry `O=c1onc2cnc3ccccc3n12` , cell viability reported as 110%

Entry `Cc1c(CN(C)C(=O)/C=C/c2cnc3c(c2)CCC(=O)N3)oc2ccccc12` , cell viability reported as 92.6%
